target: USP7 (Homo sapiens, UniProt Q93009); construct: USP7, construct USP7 (208-1102) 6*His, Viva Biotech; 6xHis (C); purchased Viva Biotech; test: USP7 Assay A (Ubitquin-Rhodamine 110 Assay); format: biochemical; conditions: USP7 assay A and B (table does not say which assay per compound); read-out: USP7_IC50
Sequence (Q93009 208-1102): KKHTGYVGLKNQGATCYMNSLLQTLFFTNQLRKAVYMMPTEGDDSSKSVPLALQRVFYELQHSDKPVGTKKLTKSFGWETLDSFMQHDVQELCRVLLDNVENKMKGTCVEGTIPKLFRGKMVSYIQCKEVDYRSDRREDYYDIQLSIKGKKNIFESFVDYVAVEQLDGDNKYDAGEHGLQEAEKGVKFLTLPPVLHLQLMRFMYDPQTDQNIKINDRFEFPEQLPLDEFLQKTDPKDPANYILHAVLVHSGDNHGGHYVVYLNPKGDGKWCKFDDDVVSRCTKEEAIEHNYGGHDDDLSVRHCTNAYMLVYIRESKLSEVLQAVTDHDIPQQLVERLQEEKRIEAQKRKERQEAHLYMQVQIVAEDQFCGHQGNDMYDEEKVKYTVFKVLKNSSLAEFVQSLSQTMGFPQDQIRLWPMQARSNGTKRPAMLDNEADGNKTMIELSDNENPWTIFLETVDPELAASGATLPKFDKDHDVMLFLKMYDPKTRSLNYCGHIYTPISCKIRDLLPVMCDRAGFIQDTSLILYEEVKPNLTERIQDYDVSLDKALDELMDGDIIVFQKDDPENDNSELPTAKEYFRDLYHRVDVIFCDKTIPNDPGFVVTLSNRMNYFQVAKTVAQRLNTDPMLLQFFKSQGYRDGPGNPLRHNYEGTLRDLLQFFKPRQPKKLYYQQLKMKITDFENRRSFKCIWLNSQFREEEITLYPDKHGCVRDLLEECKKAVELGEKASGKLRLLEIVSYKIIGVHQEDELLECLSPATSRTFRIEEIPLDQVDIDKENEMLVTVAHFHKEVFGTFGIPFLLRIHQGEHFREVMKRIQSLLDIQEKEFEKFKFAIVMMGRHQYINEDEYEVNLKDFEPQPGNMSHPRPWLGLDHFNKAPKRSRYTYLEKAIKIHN

[
  {
    "molecule": "CN(C(=O)N1CCC(O)(Cn2cnc3c(cnn3C)c2=O)CC1)c1ccc(-c2ccccc2)cc1",
    "IC50": "> 10 µM"
  },
  {
    "molecule": "C#CC(=O)NC1CC(C(=O)N2CCC(O)(Cn3cnc4c(cnn4-c4ccc(-c5ccccc5)cc4)c3=O)CC2)C1 (stereo not drawn)",
    "IC50": "1 to 10 µM"
  },
  {
    "molecule": "Cc1cc(C(=O)N2CCC(O)(Cn3cnc4c(cnn4-c4ccccc4)c3=O)CC2)nn1C",
    "IC50": "1 to 10 µM"
  },
  {
    "molecule": "COc1ccc(C(=O)N2CCC(O)(Cn3cnc4c(cnn4-c4ccccc4)c3=O)CC2)cc1",
    "IC50": "0.2 to 1 µM"
  },
  {
    "molecule": "O=C(NCCO)c1cccc(-c2cccc(-n3ncc4c(=O)n(CC5(O)CCN(C(=O)C6CC6)CC5)cnc43)c2)c1",
    "IC50": "1 to 10 µM"
  },
  {
    "molecule": "O=C(C1CC1)N1CCC(O)(Cn2cnc3c(cnn3-c3ccc(NCCN4CCCCC4)cc3)c2=O)CC1",
    "IC50": "0.2 to 1 µM"
  },
  {
    "molecule": "O=C(C1CC1)N1CCC(O)(Cn2cnc3c(cnn3-c3cccc(N4CCCCC4)c3)c2=O)CC1",
    "IC50": "1 to 10 µM"
  },
  {
    "molecule": "CNC(=O)N1CCC(O)(Cn2cnc3c(cnn3-c3ccc(F)cc3)c2=O)CC1",
    "IC50": "1 to 10 µM"
  },
  {
    "molecule": "N#Cc1ccc(Nc2ccc(-n3ncc4c(=O)n(CC5(O)CCN(C(=O)C6CC6)CC5)cnc43)cc2)nc1",
    "IC50": "1 to 10 µM"
  },
  {
    "molecule": "O=C(C1CC1)N1CCC(O)(Cn2cnc3c(cnn3-c3cccc(-c4cccc(O)c4)c3)c2=O)CC1",
    "IC50": "1 to 10 µM"
  },
  {
    "molecule": "C[C@H](CC(=O)N1CCC(O)(Cn2cnc3c(cnn3-c3ccccc3)c2=O)CC1)n1cccc1",
    "IC50": "< 0.2 µM"
  },
  {
    "molecule": "O=C(Nc1nccs1)c1ccc(-n2ncc3c(=O)n(CC4(O)CCN(C(=O)C5CC5)CC4)cnc32)cc1",
    "IC50": "1 to 10 µM"
  },
  {
    "molecule": "O=C(C1CC1)N1CCC(O)(Cn2cnc3c(cnn3-c3ccc(-c4ccc(O[C@@H]5CCNC5)cc4)cc3)c2=O)CC1",
    "IC50": "0.2 to 1 µM"
  },
  {
    "molecule": "O=C(c1ccc(F)c(F)c1)N1CCC(O)(Cn2cnc3c(cnn3-c3ccc(F)cc3)c2=O)CC1",
    "IC50": "1 to 10 µM"
  },
  {
    "molecule": "O=C(C1CC1)N1CCC(O)(Cn2cnc3c(cnn3-c3cccc(N4CCC(c5ccccc5)CC4)c3)c2=O)CC1",
    "IC50": "1 to 10 µM"
  }
]
